# System: Noggin (protein binding on small-molecule microarray)
# experiment.summary: Noggin binders on small-molecule microarray, primary screen, biochemical, 635/667 nm fluorescence (AID 1095);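 further: score merges 667 nm feature fluorescence with signal to noise over triplicate slides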
# conditions.used: 635 nm fluorescence, higher = more signal
Recorded composite z-score values for a group of compounds are listed next.
Reply with just the number.

Record excerpt, results attached:
Request: Give composite z-score for the following compound: CCCCC(=C=CC[C@@H](O)c1cccc(OCCO)c1)CCO
Response: -0.0301

Request: Give composite z-score for the following compound: COC(=O)[C@@]1(Cc2ccc(F)cc2)[C@H]2c3cc(C(=O)N(C)C)n(CCO)c3C[C@H]2CN1C(=O)c1ccccc1
Response: -0.515

Further cases:
Request: Give composite z-score for the following compound: C=C(CCCC)/C(=C/C[C@H](OC(C)=O)c1cccc(OCCO)c1)c1cc(C(=O)OC)ccc1OC
Response: 1.04
